# Test target: T1, Cynomolgus EGFR extracellular domain (Cynomolgus monkey (Macaca fascicularis), UniProt P55245 25-645 (rhesus entry))
# T1 construct: Cloned without signal peptide; also called Cynomolgus rEGFR ECD; Cynomolgus EGFR ECD
# Protocol summary: ELISA on cynomolgus EGFR ECD (Example 10)
# Protocol: To verify that tested Anti-EGFR antibodies bound equally well to both Human and Cynomolgus EGFR ECD and accordingly warranting toxicology studies in Cynomolgus monkeys, serial four fold dilutions of antibodies beginning from 1 μg/ml were tested by ELISA for binding to recombinant Human and Cynomolgus EGFR ECD proteins. […] After incubation the reaction was stopped by addition of 1 M H₂SO₄; 100 μl/well and plates were read at OD 450 nm.

Binder: antibody 1344 (antibody, human IgG1, kappa, V domains shown, Chimeric IgG1 kappa) VH: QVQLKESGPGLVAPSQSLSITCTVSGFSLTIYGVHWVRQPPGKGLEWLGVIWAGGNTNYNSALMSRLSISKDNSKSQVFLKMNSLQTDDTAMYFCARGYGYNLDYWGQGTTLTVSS VL: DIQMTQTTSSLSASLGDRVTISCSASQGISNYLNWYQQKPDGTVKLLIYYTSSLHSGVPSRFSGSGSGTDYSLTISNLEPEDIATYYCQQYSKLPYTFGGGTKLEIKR
binding result: binds
